All figures here come from the NIST ThermoML archive (doi:10.1021/je0602723).

- measurement_description: activity coefficient (dimensionless); of the first substance listed, at infinite dilution; xn = mol fraction of the nth substance listed
- stated_conditions: 333.4 K; Liquid; Chromatography; x1 = 0
Form field: activity coefficient (one value per entry).
readout: activity coefficient

[[record]]
compound = "CCC(C)O (centres undefined) [butan-2-ol] + CCOS(=O)(=O)[O-].CCn1cc[n+](C)c1"
readout_number = 1.65

[[record]]
compound = "CC#N [acetonitrile] + CCOS(=O)(=O)[O-].CCn1cc[n+](C)c1"
readout_number = 0.8

[[record]]
compound = "CC(C)CO [2-methyl-1-propanol] + CCOS(=O)(=O)[O-].CCn1cc[n+](C)c1"
readout_number = 1.51

[[record]]
compound = "CC(C)(C)O [2-methylpropan-2-ol] + CCOS(=O)(=O)[O-].CCn1cc[n+](C)c1"
readout_number = 1.64

[[record]]
compound = "CCCC=O [butanal] + CCOS(=O)(=O)[O-].CCn1cc[n+](C)c1"
readout_number = 3.39

[[record]]
compound = "C1COCCO1 [1,4-dioxane] + CCOS(=O)(=O)[O-].CCn1cc[n+](C)c1"
readout_number = 2.08

[[record]]
compound = "CCCCCO [pentan-1-ol] + CCOS(=O)(=O)[O-].CCn1cc[n+](C)c1"
readout_number = 2.58

[[record]]
compound = "CO [methanol] + CCOS(=O)(=O)[O-].CCn1cc[n+](C)c1"
readout_number = 0.39

[[record]]
compound = "CC(C)O [propan-2-ol] + CCOS(=O)(=O)[O-].CCn1cc[n+](C)c1"
readout_number = 1.22

[[record]]
compound = "CCCCCC=O [hexanal] + CCOS(=O)(=O)[O-].CCn1cc[n+](C)c1"
readout_number = 11.1

[[record]]
compound = "CCCCO [butan-1-ol] + CCOS(=O)(=O)[O-].CCn1cc[n+](C)c1"
readout_number = 1.59

[[record]]
compound = "CCC(C)(C)O [2-methylbutan-2-ol] + CCOS(=O)(=O)[O-].CCn1cc[n+](C)c1"
readout_number = 2.21

[[record]]
compound = "CCCCCC(=O)OC [methyl hexanoate] + CCOS(=O)(=O)[O-].CCn1cc[n+](C)c1"
readout_number = 17

[[record]]
compound = "CCCCCCC(=O)OC [methyl heptanoate] + CCOS(=O)(=O)[O-].CCn1cc[n+](C)c1"
readout_number = 25.5


* * *

- measurement_description: activity coefficient (dimensionless); of the first substance listed, at infinite dilution; xn = mol fraction of the nth substance listed
- stated_conditions: 301.8 K; Liquid; Chromatography; x1 = 0
Form field: activity coefficient (one value per entry).
readout: activity coefficient

[[record]]
compound = "CCCCCCCCCC [decane] + CCOS(=O)(=O)[O-].CCn1cc[n+](C)c1"
readout_number = 504

[[record]]
compound = "CCCCCCCCC [nonane] + CCOS(=O)(=O)[O-].CCn1cc[n+](C)c1"
readout_number = 357

[[record]]
compound = "CCCCCCC(=O)OC [methyl heptanoate] + CCOS(=O)(=O)[O-].CCn1cc[n+](C)c1"
readout_number = 29.8

[[record]]
compound = "c1ccccc1 [benzene] + CCOS(=O)(=O)[O-].CCn1cc[n+](C)c1"
readout_number = 2.98

